# Test system: Streptococcus pyogenes
# measurement.notes: Experimental bacterial infection in mice, ED50
# Assay type: in vivo
# run.parameters: Streptococcus pyogenes, po, two doses, dose protecting 50% of animals, read-out: Oral ED50
For each record, write down the corresponding ED50.
Give bare numbers, in mg/kg.

Sample answers from the record:
compound	ED50, mg/kg
CCCCCN[C@@H]1[C@H](C)[C@@H](O)[C@](C)(O)[C@@H](CC)OC(=O)[C@H](C)[C@@H](O[C@H]2C[C@@](C)(OC)[C@@H](O)[C@H](C)O2)[C@H](C)[C@@H](O[C@@H]2O[C@H](C)C[C@H](N(C)C)[C@H]2O)[C@](C)(O)C[C@H]1C	8.8
CCC(CC)CN[C@@H]1[C@H](C)[C@@H](O)[C@](C)(O)[C@@H](CC)OC(=O)[C@H](C)[C@@H](O[C@H]2C[C@@](C)(OC)[C@@H](O)[C@H](C)O2)[C@H](C)[C@@H](O[C@@H]2O[C@H](C)C[C@H](N(C)C)[C@H]2O)[C@](C)(O)C[C@H]1C	9.4
CC[C@H]1OC(=O)[C@H](C)[C@@H](O[C@H]2C[C@@](C)(OC)[C@@H](O)[C@H](C)O2)[C@H](C)[C@@H](O[C@@H]2O[C@H](C)C[C@H](N(C)C)[C@H]2O)[C@](C)(O)C[C@@H](C)[C@H](NCCC(C)CCCC(C)(C)OC)[C@H](C)[C@@H](O)[C@]1(C)O (stereo partly shown)	25
CC[C@H]1OC(=O)[C@H](C)[C@@H](O[C@H]2C[C@@](C)(OC)[C@@H](O)[C@H](C)O2)[C@H](C)[C@@H](O[C@@H]2O[C@H](C)C[C@H](N(C)C)[C@H]2O)[C@](C)(O)C[C@@H](C)[C@H](NCCOC)[C@H](C)[C@@H](O)[C@]1(C)O	16.3

Below: the item to evaluate.
Tell me its ED50 given CC[C@H]1OC(=O)[C@H](C)[C@@H](O[C@H]2C[C@@](C)(OC)[C@@H](O)[C@H](C)O2)[C@H](C)[C@@H](O[C@@H]2O[C@H](C)C[C@H](N(C)C)[C@H]2O)[C@](C)(O)C[C@@H](C)[C@H](NCCCc2ccccc2)[C@H](C)[C@@H](O)[C@]1(C)O as the entry.
14.1

###

# Test system: Staphylococcus aureus V41
# measurement.notes: MIC, standard agar-dilution assay
# Assay type: cell-based
# run.parameters: Staphylococcus aureus V41, Penicillin-resistant strain, inducibly-resistant to erythromycin; read-out: MIC
measure.name: MIC

Examples with answers:
CCCCCCCCN[C@@H]1[C@H](C)[C@@H](O)[C@](C)(O)[C@@H](CC)OC(=O)[C@H](C)[C@@H](O[C@H]2C[C@@](C)(OC)[C@@H](O)[C@H](C)O2)[C@H](C)[C@@H](O[C@@H]2O[C@H](C)C[C@H](N(C)C)[C@H]2O)[C@](C)(O)C[C@H]1C 8 µg/mL
CC[C@H]1OC(=O)[C@H](C)[C@@H](O[C@H]2C[C@@](C)(OC)[C@@H](O)[C@H](C)O2)[C@H](C)[C@@H](O[C@@H]2O[C@H](C)C[C@H](N(C)C)[C@H]2O)[C@](C)(O)C[C@@H](C)[C@H]2[C@H](C)[C@@H](OCN2Cc2ccccc2)[C@]1(C)O 64 µg/mL
CC[C@H]1OC(=O)[C@H](C)[C@@H](O[C@H]2C[C@@](C)(OC)[C@@H](O)[C@H](C)O2)[C@H](C)[C@@H](O[C@@H]2O[C@H](C)C[C@H](N(C)C)[C@H]2O)[C@](C)(O)C[C@@H](C)[C@H](N(C)C2CCCCC2)[C@H](C)[C@@H](O)[C@]1(C)O > 128 µg/mL

Lab note: each compound below needs its MIC filled in.
1. CC[C@H]1OC(=O)[C@H](C)[C@@H](O[C@H]2C[C@@](C)(OC)[C@@H](O)[C@H](C)O2)[C@H](C)[C@@H](O[C@@H]2O[C@H](C)C[C@H](N(C)C)[C@H]2O)[C@](C)(O)C[C@@H](C)[C@H](N(C)C)[C@H](C)[C@@H](O)[C@]1(C)O
2. CCC(CC)CN[C@@H]1[C@H](C)[C@@H](O)[C@](C)(O)[C@@H](CC)OC(=O)[C@H](C)[C@@H](O[C@H]2C[C@@](C)(OC)[C@@H](O)[C@H](C)O2)[C@H](C)[C@@H](O[C@@H]2O[C@H](C)C[C@H](N(C)C)[C@H]2O)[C@](C)(O)C[C@H]1C

["64 µg/mL", "16 µg/mL"]

Respectfully, I request MIC for each entry included below.
1. CCCCCCCCCCCCN[C@@H]1[C@H](C)[C@@H](O)[C@](C)(O)[C@@H](CC)OC(=O)[C@H](C)[C@@H](O[C@H]2C[C@@](C)(OC)[C@@H](O)[C@H](C)O2)[C@H](C)[C@@H](O[C@@H]2O[C@H](C)C[C@H](N(C)C)[C@H]2O)[C@](C)(O)C[C@H]1C
2. CCCN1CO[C@@H]2[C@@H](C)[C@@H]1[C@H](C)C[C@@](C)(O)[C@H](O[C@@H]1O[C@H](C)C[C@H](N(C)C)[C@H]1O)[C@@H](C)[C@H](O[C@H]1C[C@@](C)(OC)[C@@H](O)[C@H](C)O1)[C@@H](C)C(=O)O[C@H](CC)[C@@]2(C)O

8 µg/mL
8 µg/mL
